- System: Human rhinovirus sp.
- assayRemarks: Percent inhibitory activity at 8 uM against rhinoviral 13 serotype in a plaque inhibition assay using monolayers of M-HeLa cells
- Assay type: functional
Classification field: enter Condition met for Inhibition values not below 30%, Condition not met for values below it.

Use these answered entries as a reference point.
CN(C)c1nc(C(F)(F)F)nc2c1ncn2Cc1ccc([N+](=O)[O-])cc1 | Condition not met
CN(C)c1nc(C(F)(F)F)nc2c1ncn2Cc1ccc(Cl)c(NC=O)c1 | Condition met

Is the recorded value of Inhibition equal to or greater than 30% for this compound? CC(C)Oc1ccc(Cn2cnc3c(N(C)C)nc(C(F)(F)F)nc32)cc1 Condition met

// inclusive: Inhibition at least 30%? input: COc1ccc(Cn2cnc3c(N(C)C)nc(C(F)(F)F)nc32)cc1C Condition not met

Hello, I need to know if CSc1ccc(Cn2cnc3c(N(C)C)nc(C(F)(F)F)nc32)cc1 has measured Inhibition not below 30%. Thanks! Condition met

Say whether CN(C)c1nc(C(F)(F)F)nc2c1ncn2Cc1ccccc1 shows Inhibition of 30% or more. Condition not met

hey, is Inhibition for this one >= 30%? Cc1ccccc1Cn1cnc2c(N(C)C)nc(C(F)(F)F)nc21 Condition met

Assess whether reported Inhibition for CN(C)c1nc(C(F)(F)F)nc2c1ncn2Cc1ccccc1Cl sits at 30% or higher. Condition not met
